Recorded values, source paper PMC11882969.

Assign Gi1 hCB1 response to each entry below.
- assay target: hCB1 (Homo sapiens)
- Sequence (P21554 whole entry): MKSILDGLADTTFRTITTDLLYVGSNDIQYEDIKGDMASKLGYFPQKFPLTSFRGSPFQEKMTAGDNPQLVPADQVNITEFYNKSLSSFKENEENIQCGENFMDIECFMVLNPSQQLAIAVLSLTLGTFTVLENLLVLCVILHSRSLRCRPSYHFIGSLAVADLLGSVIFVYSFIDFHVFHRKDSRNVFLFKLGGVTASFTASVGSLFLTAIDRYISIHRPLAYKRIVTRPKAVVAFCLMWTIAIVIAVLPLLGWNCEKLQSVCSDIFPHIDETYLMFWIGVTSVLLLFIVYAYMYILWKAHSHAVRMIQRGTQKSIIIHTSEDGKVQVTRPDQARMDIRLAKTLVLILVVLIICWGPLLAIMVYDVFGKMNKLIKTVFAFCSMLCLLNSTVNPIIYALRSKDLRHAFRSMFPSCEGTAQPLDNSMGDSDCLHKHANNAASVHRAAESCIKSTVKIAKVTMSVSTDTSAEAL
- assay name: bioSensAll ebBRET signaling profiling, hCB1
- Format: cell-based
- Design: host or cells: HEK293SL cells, transient PEI transfection
- experimental conditions: Gi1 biosensor; Log [Compound] (M) -12.3979

Need Gi1 hCB1 response of COC(=O)C(NC(=O)c1cc(C)n(-c2cccc(C(F)(F)F)c2)n1)c1cccs1 (centres unmarked) [‘60154] , thanks.
-8.651

Entry COc1cccc(C(NC(=O)c2cc(C)n(-c3cccc(C(F)(F)F)c3)n2)c2ccco2)c1 (centres unmarked) [‘1087] please
-4.555

// repeat for Cc1cc(C(=O)N(C)C(c2ccccc2)c2ccco2)nn1-c1cccc(C(F)(F)F)c1 (centres unmarked) [‘1082] and report
-16.5961

Consider next the compound COC(=O)C(NC(=O)c1cc(C)n(-c2cccc(F)c2)n1)c1cccs1 (centres unmarked) [‘51486] in the same way.
-1.466

Then this compound: Cc1cc(C(=O)NC(c2ccco2)c2ccco2)nn1-c1cccc(C(F)(F)F)c1 [‘1090]
-6.524

Then what about the compound Cc1cc(C(=O)N2CC3(CCC3)[C@H]2[C@@H]2CCCO2)nn1-c1cccc(C(F)(F)F)c1 [‘5490] ?
-1.959

Same read-out for COC(=O)[C@](C)(NC(=O)c1cc(C)n(-c2cccc(C(F)(F)F)c2)n1)c1cccs1 [‘8690] ?
8.695

# repeat for COC(=O)[C@@H]1[C@@H]2CC[C@@H]2CN1C(=O)c1cc(C)n(-c2cccc(C(F)(F)F)c2)n1 [‘6448]
-5.204

----------
- assay target: UniProtKB P21554
- assay name: bioSensAll ebBRET signaling profiling, hCB1
- Type: cell-based
- Set-up: host or cells: HEK293SL cells, transient PEI transfection
- experimental conditions: Log [Compound] (M) -8.22186; single replicate values, FigS6a
value kind: Gi1 hCB1
Returns: the value as a bare number; no unit string appended.

Item under review: "Cc1cc(C(=O)N2CC3(CCC3)[C@H]2[C@H]2CCCO2)nn1-c1cccc(C(F)(F)F)c1" . Reported Gi1 hCB1?
1.384

Also Cc1cc(C(=O)N2CC3(CCC3)[C@@H]2[C@H]2CCCO2)nn1-c1cccc(C(F)(F)F)c1 (single isomer, unassigned) , if possible.
0.08902

Field entry: "Cn1nc(-c2nnc(C(C)(C)Oc3ccc(C(F)(F)F)cc3)o2)c2ccccc2c1=O"
7.605

Repeat for the following molecule: COC(=O)[C@@H]1[C@@H]2CCC[C@@H]2CN1C(=O)c1cc(C)n(-c2cccc(Cl)c2)n1 (racemic)
2.679

Consider next the molecule COC(=O)C(NC(=O)c1cc(C)n(-c2cccc(F)c2)n1)c1cccs1 (stereo not shown) in the same way.
0.05819

Would you kindly repeat that for Cc1cc(C(=O)N(C)C(c2ccccc2)c2ccco2)nn1-c1cccc(C(F)(F)F)c1 (stereo not shown) ?
1.6461

Consider next the molecule Cc1cc(C(=O)NC(c2ccccc2)c2ccco2)nn1-c1cccc(C#N)c1 (stereo not shown) in the same way.
1.492

Continue with "Brc1cc2c(cc1Cc1noc(-c3cnn(CC4CC4)c3)n1)OCO2"
-5.46

How about this molecule: Cc1nn(Cc2ccc(Cl)cc2)c(C)c1C(=O)OCC1CSc2ccccc2O1 (stereo not shown)
6.512

What would you report for "Cc1nc(CC2CC2)oc1-c1nc(Cc2cc3c(cc2Br)OCO3)no1" ?
3.4083

And for Cc1cc(C(=O)NC(c2ccccc2)c2ccco2)nn1-c1cccc(C(F)(F)F)c1 (stereo not shown) ?
6.209

Ok, now "Cn1nc(-c2nnc(C(C)(C)Oc3ccc(Cl)cc3)o2)c2ccccc2c1=O"
0.6527

What about this molecule? "Cc1cc(C(=O)N(C)C(c2ccco2)c2ccco2)nn1-c1cccc(C(F)(F)F)c1"
1.292

Next molecule up: "COC(=O)[C@@H]1[C@@H]2CC[C@@H]2CN1C(=O)c1cc(C)n(-c2cccc(C(F)(F)F)c2)n1"
-0.06514

Cc1c(C(=O)OCC2CSc3ccccc3O2)cnn1Cc1ccccc1 (stereo not shown) ?
3.424

Same read-out for "Cc1cc(C(=O)N2CC3(CCC3)[C@@H]2[C@@H]2CCCO2)nn1-c1cccc(C(F)(F)F)c1" ?
1.7386

Also, "COC(=O)[C@@H]1[C@@H]2CCC[C@@H]2CN1C(=O)c1cc(C)n(-c2cccc(C(F)(F)F)c2)n1" please.
5.331

Check "Cc1cc(C(=O)NC(c2ccco2)c2ccco2)nn1-c1cccc(C(F)(F)F)c1" too.
14.9814

For COc1cccc(C(NC(=O)c2cc(C)n(-c3cccc(C(F)(F)F)c3)n2)c2ccco2)c1 (stereo not shown) then?
2.463

Repeat with COC(=O)C(NC(=O)c1cc(C)n(-c2cccc(C(F)(F)F)c2)n1)c1cccs1 (stereo not shown)
23.9076

What about "Cc1cc(C(=O)N2CC3(CCC3)[C@H]2[C@@H]2CCCO2)nn1-c1cccc(C(F)(F)F)c1" ?
2.062

Would you kindly repeat that for CC(=O)C(c1cccs1)N(C)C(=O)c1cc(C)n(-c2cccc(C(F)(F)F)c2)n1 (stereo not shown) ?
1.1836

----------
- assay target: hCB1 (Homo sapiens)
- assay name: bioSensAll ebBRET signaling profiling, hCB1
- Type: cell-based
- Design: host or cells: HEK293SL cells, transient PEI transfection
- experimental conditions: Log [Compound] (M) -10.0969; single replicate values, FigS6a
Hi there, I'd appreciate the recorded Gi1 hCB1 for every entry that follows.
Give your answer as a number; write no unit.

What does the record list as Gi1 hCB1 for Cc1cc(C(=O)N(C)C(c2ccccc2)c2ccco2)nn1-c1cccc(C(F)(F)F)c1 (centres unmarked) [‘1082] ?
2.864

Now this one: COC(=O)C(NC(=O)c1cc(C)n(-c2cccc(F)c2)n1)c1cccs1 (centres unmarked) [‘51486]
1.1836

Follow-up entry: Cc1cc(C(=O)NC(c2ccco2)c2ccco2)nn1-c1cccc(C(F)(F)F)c1 [‘1090]
3.897

What do you get for Cc1cc(C(=O)N2CC3(CCC3)[C@H]2[C@@H]2CCCO2)nn1-c1cccc(C(F)(F)F)c1 [‘5490] ?
3.712

And what about the compound Brc1cc2c(cc1Cc1noc(-c3cnn(CC4CC4)c3)n1)OCO2 [‘5424] ?
-1.39

----------
I'd be grateful if you could share measured concentration at 480 min for these entries.
- assay name: Pharmacokinetics: plasma, brain, CSF
- experimental conditions: male, CD-1, mouse, brain, intraperitoneal, 0.2 mg/kg
Return type: number; implicit unit ng/g.

Any idea what concentration at 480 min was measured for COC(=O)[C@@](C)(NC(=O)c1cc(C)n(-c2cccc(C(F)(F)F)c2)n1)c1cccs1 [‘1350] ?
2.87

Also need Cc1cc(C(=O)NC(C)(c2ccco2)c2ccco2)nn1-c1cccc(C(F)(F)F)c1 [‘4936] , thanks.
1.98

----------
- assay target: hCB2 (Homo sapiens, UniProt P34972)
- Sequence (P34972 whole entry): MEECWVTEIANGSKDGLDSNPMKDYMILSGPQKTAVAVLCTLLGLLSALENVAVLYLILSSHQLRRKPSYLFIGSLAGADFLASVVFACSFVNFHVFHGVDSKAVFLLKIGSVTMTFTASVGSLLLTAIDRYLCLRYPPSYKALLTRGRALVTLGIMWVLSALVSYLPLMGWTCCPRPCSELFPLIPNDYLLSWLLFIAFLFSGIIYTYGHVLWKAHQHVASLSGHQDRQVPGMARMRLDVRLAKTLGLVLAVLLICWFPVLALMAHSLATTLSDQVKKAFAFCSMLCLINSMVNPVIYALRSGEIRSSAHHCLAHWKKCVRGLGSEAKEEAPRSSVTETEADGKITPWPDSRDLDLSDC
- assay name: bioSensAll ebBRET signaling profiling, hCB2
- Type: cell-based
- Parameters: host or cells: HEK293SL cells, transient PEI transfection
- experimental conditions: read-out: EC50 [95% CI]; hCB2 Gi2
value kind: EC50 (nM)
Report the figure in nM without appending any unit label.

Can you look up the measured EC50 of COC(=O)C(C)(NC(=O)c1cc(C)n(-c2cccc(C(F)(F)F)c2)n1)c1cccs1 (centres unmarked) for me?
1.3

Next compound: "COC(=O)[C@@](C)(NC(=O)c1cc(C)n(-c2cccc(C(F)(F)F)c2)n1)c1cccs1"
1.6

----------
- assay target: UniProt:P21554
- assay name: bioSensAll ebBRET signaling profiling, hCB1
- Assay type: cell-based
- Design: host or cells: HEK293SL cells, transient PEI transfection
- experimental conditions: Log [Compound] (M) -4.63927; single replicate values, FigS6a
Task for the reader: assign each of the following compounds its reported Gi1 hCB1.
# respond with the number and nothing more

Gi1 hCB1 for "COC(=O)[C@@H]1[C@@H]2CCC[C@@H]2CN1C(=O)c1cc(C)n(-c2cccc(C(F)(F)F)c2)n1" ?
91.1085

And COC(=O)C(NC(=O)c1cc(C)n(-c2cccc(F)c2)n1)c1cccs1 (centres unmarked) ?
68.0453

Moving on to the next compound: Cc1cc(C(=O)NC(c2ccccc2)c2ccco2)nn1-c1cccc(C#N)c1 (centres unmarked)
29.288

Follow-up entry: "Cc1cc(C(=O)N2CC3(CCC3)[C@H]2[C@H]2CCCO2)nn1-c1cccc(C(F)(F)F)c1"
76.9098

Now the same for "Brc1cc2c(cc1Cc1noc(-c3cnn(CC4CC4)c3)n1)OCO2"
-11.9852
